The measurements presented in this section are drawn from patent US5157019A.

- TARGET UNDER TEST: Factor D (Homo sapiens, UniProt P00746)
- Construct: prepared from pooled human plasma; from tissue; host or cells: pooled human plasma
- Sequence (P00746 26-253): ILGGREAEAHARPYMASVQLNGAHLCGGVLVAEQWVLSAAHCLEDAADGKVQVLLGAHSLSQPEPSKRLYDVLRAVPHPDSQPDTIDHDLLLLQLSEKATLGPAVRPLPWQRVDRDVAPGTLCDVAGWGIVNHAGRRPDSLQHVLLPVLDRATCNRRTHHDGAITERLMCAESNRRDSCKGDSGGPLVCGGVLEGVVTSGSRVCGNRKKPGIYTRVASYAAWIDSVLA
- EXPERIMENTAL DETAILS: Factor D assay by inhibition of fluid phase Factor B activation
- Type: biochemical
- MEASUREMENT CONTEXT: Tables VI and VIII, % 50; read-out: Factor D, μM concentration listed for 50 % inhibition
Ends that are not written are not given here.
RESULT TYPE: IC50 (µM)

A = VKFNKPFVFLLIEQNTKSPLFLGKVVNPTQK [Peptide 20]
B = IVRFNRPFLLIIVPTDTQNIFFLSKVTNPSKPR [Peptide 22]
C = PNRVTFKANRPFLVFI [Peptide 2]
D = IVRFNRPFLLII [Peptide 3]
## Task Put the items in order so that reported IC50 rises from first to last. Reply with the labels, ordered as the question asks.
## Result B, A, C, D
(B: 4 µM, A: 16 µM, C: 53 µM, D: 111 µM)

---

- TARGET UNDER TEST: HUMAN SPUTUM ELASTASE (Homo sapiens, UniProt P08246)
- Construct: HUMAN SPUTUM ELASTASE; purchased Elastin Products Company SE563; host or cells: human sputum (from the product name)
- Sequence (P08246 30-267): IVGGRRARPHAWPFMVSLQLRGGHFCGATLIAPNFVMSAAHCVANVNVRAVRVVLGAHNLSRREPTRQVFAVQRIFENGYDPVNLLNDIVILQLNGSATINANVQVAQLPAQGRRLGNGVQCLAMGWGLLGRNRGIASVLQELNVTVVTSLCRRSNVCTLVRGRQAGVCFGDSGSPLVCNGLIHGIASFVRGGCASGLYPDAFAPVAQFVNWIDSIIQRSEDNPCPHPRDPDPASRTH
- EXPERIMENTAL DETAILS: Elastase assay (MeO-Suc-Ala-Pro-Val-pNA)
- Type: biochemical
- MEASUREMENT CONTEXT: 200 μM peptide
Ends that are not written are not given here.
RESULT TYPE: inhibition at 200 µM (%)

Worked examples follow.
RVTFKANRPFLVFIREVPLNTIIFLGRVANP [Peptide 21]; 0
IVRFNRPFLLII [Peptide 3]; 0
PNRVTFKANRPFLVFI [Peptide 2]; 0

A = AGRSLNPNRVTFKANRPFLVFIREVPLNTIIFLGRVANP [Peptide 27]
B = AGRSLNPNRTIVRFNRPFLLII [Peptide 11]
C = FLEAIPMSIPPEVKFNKPFVFLI [Peptide 4]
## Task Put the sequences in ascending order of inhibition at 200 µM. Note for the reader: the ranking is given by listing the labels in the order requested.
## Result A, B, C

---

- TARGET UNDER TEST: HUMAN SPUTUM ELASTASE (Homo sapiens, UniProt P08246)
- Construct: HUMAN SPUTUM ELASTASE; purchased Elastin Products Company SE563; host or cells: human sputum (from the product name)
- EXPERIMENTAL DETAILS: Elastase assay (MeO-Suc-Ala-Pro-Val-pNA)
- Format: biochemical
- MEASUREMENT CONTEXT: 200 μM peptide
Ends that are not written are not given here.
RESULT TYPE: Elastase Inhibition (%)

TLLSALVETRTIVRFNRPFLLII [Peptide 10]; 0
IAGRSLNPNRVTLRYNKPFILVLFETPGNSLVFLGRISNPATK [Peptide 33]; 0
FLEAIPMSIRTIVRFNRPFLLII [Peptide 12]; 0
